// reported IC50 for each item listed
- System tested: hCA II (Homo sapiens)
- Assay protocol: CA inhibition assay (hydrolysis of 4-nitrophenylacetate)
- Assay type: biochemical
- Details: 4-NPA hydrolysis; three independent assays, relative errors 5–10%
- From the text: Carbonic anhydrase has the ability to catalyse the hydrolysis of 4-NPA. […] More detailed operations and specific parameters are as reported earlier.
Test readout: IC50

>>> result("NS(=O)(=O)c1ccc(-n2cc(-c3ccc(NC(=O)CCC(=O)N[C@@H]4O[C@H](CO)[C@@H](O)[C@H](O)[C@H]4O)c(F)c3)nn2)cc1 [Compound 16c]")
"70.2 nM"
>>> result("NS(=O)(=O)c1ccc(-n2cc(-c3ccc(NC(=O)CCCC(=O)N[C@@H]4O[C@H](CO)[C@@H](O)[C@H](O)[C@H]4O)c([N+](=O)[O-])c3)nn2)cc1 [Compound 16o]")
"129 nM"
>>> result("Nc1ccc(-c2cn(-c3ccc(S(N)(=O)=O)cc3)nn2)cc1 [Compound 14a]")
"19.3 nM"

---

- System tested: hCA IX (Homo sapiens)
- Assay protocol: CA inhibition assay (hydrolysis of 4-nitrophenylacetate)
- Type: biochemical
- Details: 4-NPA hydrolysis; three independent assays, relative errors 5–10%
- Source text: Carbonic anhydrase has the ability to catalyse the hydrolysis of 4-NPA. […] More detailed operations and specific parameters are as reported earlier.
Test readout: IC50 (nM)

>>> numeric_readout("NS(=O)(=O)c1ccc(-n2cc(-c3ccc(NC(=O)CCCC(=O)N[C@@H]4O[C@H](CO)[C@@H](O)[C@H](O)[C@H]4O)c(Cl)c3)nn2)cc1 [Compound 16k]")
290
>>> numeric_readout("NS(=O)(=O)c1ccc(-n2cc(-c3cccc(NC(=O)CCC(=O)N[C@@H]4O[C@H](CO)[C@@H](O)[C@H](O)[C@H]4O)c3)nn2)cc1 [Compound 16b]")
86.6
>>> numeric_readout("Nc1ccc(-c2cn(-c3ccc(S(N)(=O)=O)cc3)nn2)cc1F [Compound 14c]")
40.4
>>> numeric_readout("NS(=O)(=O)c1ccc(-n2cc(-c3cc(F)c(NC(=O)CCC(=O)N[C@@H]4O[C@H](CO)[C@@H](O)[C@H](O)[C@H]4O)c(F)c3)nn2)cc1 [Compound 16g]")
544
>>> numeric_readout("Cc1cc(-c2cn(-c3ccc(S(N)(=O)=O)cc3)nn2)ccc1NC(=O)CCCC(=O)N[C@@H]1O[C@H](CO)[C@@H](O)[C@H](O)[C@H]1O [Compound 16l]")
161
>>> numeric_readout("COc1cc(-c2cn(-c3ccc(S(N)(=O)=O)cc3)nn2)ccc1NC(=O)CCC(=O)N[C@@H]1O[C@H](CO)[C@@H](O)[C@H](O)[C@H]1O [Compound 16f]")
329

---

- System tested: hCA IX (Homo sapiens, UniProt Q16790)
- Assay protocol: CA inhibition assay (hydrolysis of 4-nitrophenylacetate)
- Format: biochemical
- Details: 4-NPA hydrolysis; three independent assays, relative errors 5–10%
- Source text: Carbonic anhydrase has the ability to catalyse the hydrolysis of 4-NPA. […] More detailed operations and specific parameters are as reported earlier.
In plain terms, low IC50, meaning strictly below 100 nM, gives True, and everything else gives False.

>>> label("NS(=O)(=O)c1ccc(-n2cc(-c3ccc(NC(=O)CCC(=O)N[C@@H]4O[C@H](CO)[C@@H](O)[C@H](O)[C@H]4O)cc3)nn2)cc1 [Compound 16a]")
"True"
>>> label("Nc1ccc(-c2cn(-c3ccc(S(N)(=O)=O)cc3)nn2)cc1[N+](=O)[O-] [Compound 14h]")
"True"
>>> label("Nc1c(F)cc(-c2cn(-c3ccc(S(N)(=O)=O)cc3)nn2)cc1F [Compound 14g]")
"False"
>>> label("Cc1cc(-c2cn(-c3ccc(S(N)(=O)=O)cc3)nn2)ccc1NC(=O)CCC(=O)N[C@@H]1O[C@H](CO)[C@@H](O)[C@H](O)[C@H]1O [Compound 16e]")
"True"
